# measured on: Equilibrative nucleoside transporter 1 (Homo sapiens, UniProt Q99808)
# Sequence (Q99808 whole entry): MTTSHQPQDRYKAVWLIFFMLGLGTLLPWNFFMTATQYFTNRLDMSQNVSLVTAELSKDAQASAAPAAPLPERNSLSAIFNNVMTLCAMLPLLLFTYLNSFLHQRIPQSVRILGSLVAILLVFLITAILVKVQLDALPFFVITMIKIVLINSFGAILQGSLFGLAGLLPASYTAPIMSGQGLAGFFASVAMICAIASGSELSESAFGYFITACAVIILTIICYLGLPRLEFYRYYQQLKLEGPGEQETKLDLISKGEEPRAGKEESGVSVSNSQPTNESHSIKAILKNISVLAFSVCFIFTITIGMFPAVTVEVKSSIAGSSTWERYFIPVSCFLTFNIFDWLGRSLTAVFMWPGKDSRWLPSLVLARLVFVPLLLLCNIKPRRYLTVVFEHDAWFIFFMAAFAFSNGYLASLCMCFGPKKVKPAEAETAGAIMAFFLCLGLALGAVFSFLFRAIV

| molecule | AC50 |
| --- | --- |
| COc1ccnc(C[S+]([O-])c2nc3ccc(OC(F)F)cc3[nH]2)c1OC (configuration not stated) | > 30 µM |
| Cn1c(=O)c2[nH]cnc2n(C)c1=O | > 30 µM |
| COCCCOc1ccnc(C[S+]([O-])c2nc3ccccc3[nH]2)c1C (configuration not stated) | > 30 µM |
| Clc1ccc(C(Cn2ccnc2)OCc2ccc(Sc3ccccc3)cc2)c(Cl)c1 (configuration not stated) | > 30 µM |
| Clc1cccc(Cl)c1N=C1NCCN1 | > 30 µM |
| COCCOC(=O)C1=C(C)NC(C)=C(C(=O)OC/C=C/c2ccccc2)C1c1cccc([N+](=O)[O-])c1 (configuration not stated) | 26 µM |
| CC(C)c1cc2c(cc1S(=O)(=O)O)[C@@]1(C)CCC[C@@](C)(C(=O)O)[C@@H]1CC2 | > 30 µM |
| COc1ccc2c(c1)[C@]13CCCC[C@@H]1[C@H](C2)N(C)CC3 | > 30 µM |
| CC(=O)/N=c1/sc(S(N)(=O)=O)nn1C [METHAZOLAMIDE] | > 10 µM |
| CC(C)N(CCCCOCC(=O)NS(C)(=O)=O)c1cnc(-c2ccccc2)c(-c2ccccc2)n1 | > 30 µM |
| CN(C)c1cc(CNCC(C)(C)C)c(O)c2c1C[C@H]1C[C@H]3[C@H](N(C)C)C(O)=C(C(N)=O)C(=O)[C@@]3(O)C(O)=C1C2=O | > 10 µM |
| [H]/N=C(/N)N[C@H]1[C@H](O)[C@@H](O)[C@H](O[C@@H]2O[C@@H](C)[C@](O)(C=O)[C@H]2O[C@@H]2O[C@@H](CO)[C@H](O)[C@@H](O)[C@@H]2NC)[C@@H](N/C(N)=N\[H])[C@@H]1O | > 30 µM |
| C=C(C)[C@@H]1CCC(C)=C[C@H]1c1c(O)cc(CCCCC)cc1O | > 30 µM |
| CCC(C)(Oc1ccc(C2(c3ccc(OC(C)(CC)C(=O)O)cc3)CCCCC2)cc1)C(=O)O (configuration not stated) [CLINOFIBRATE] | > 30 µM |
| CNCC[C@H](Oc1cccc2ccccc12)c1cccs1 | > 30 µM |
| Cc1cccc(N(C)C(=S)Oc2ccc3ccccc3c2)c1 [TOLNAFTATE] | > 10 µM |
| O=C(O)CSCC(=O)NC1CCSC1=O (configuration not stated) | > 30 µM |

---

# measured on: D(1A) dopamine receptor (Homo sapiens, UniProt P21728)
# Sequence (P21728 whole entry): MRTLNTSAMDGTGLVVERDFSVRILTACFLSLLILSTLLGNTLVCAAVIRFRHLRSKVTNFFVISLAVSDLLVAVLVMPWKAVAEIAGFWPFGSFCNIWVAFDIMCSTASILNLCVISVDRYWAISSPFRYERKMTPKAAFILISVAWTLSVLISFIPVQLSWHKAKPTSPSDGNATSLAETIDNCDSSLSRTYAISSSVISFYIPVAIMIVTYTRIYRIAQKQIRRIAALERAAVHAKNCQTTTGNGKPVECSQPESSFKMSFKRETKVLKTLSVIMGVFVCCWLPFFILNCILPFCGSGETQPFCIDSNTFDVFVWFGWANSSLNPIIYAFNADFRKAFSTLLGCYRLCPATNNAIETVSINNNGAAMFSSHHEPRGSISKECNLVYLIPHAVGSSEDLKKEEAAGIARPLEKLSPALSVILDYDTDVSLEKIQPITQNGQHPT
# Format: functional, cell-based
Listed below: AC50 values for each entry.

| molecule | AC50 |
| --- | --- |
| O=C(O)c1ccccc1Nc1cccc(C(F)(F)F)c1 [FLUFENAMIC ACID] | > 10 µM |
| O=C(O)CSCC(=O)NC1CCSC1=O (stereo not drawn) [ERDOSTEINE] | > 30 µM |
| CC[C@H]1OC(=O)[C@H](C)[C@@H](O[C@H]2C[C@@](C)(OC)[C@@H](O)[C@H](C)O2)[C@H](C)[C@@H](O[C@@H]2O[C@H](C)C[C@H](N(C)C)[C@H]2O)[C@](C)(O)C[C@@H](C)/C(=N\OCOCCOC)[C@H](C)[C@@H](O)[C@]1(C)O [ROXITHROMYCIN] | > 30 µM |

---

Listed below: AC50 values for each entry.
# measured on: Alpha-2C adrenergic receptor (Homo sapiens, UniProt P18825)
# Sequence (P18825 whole entry): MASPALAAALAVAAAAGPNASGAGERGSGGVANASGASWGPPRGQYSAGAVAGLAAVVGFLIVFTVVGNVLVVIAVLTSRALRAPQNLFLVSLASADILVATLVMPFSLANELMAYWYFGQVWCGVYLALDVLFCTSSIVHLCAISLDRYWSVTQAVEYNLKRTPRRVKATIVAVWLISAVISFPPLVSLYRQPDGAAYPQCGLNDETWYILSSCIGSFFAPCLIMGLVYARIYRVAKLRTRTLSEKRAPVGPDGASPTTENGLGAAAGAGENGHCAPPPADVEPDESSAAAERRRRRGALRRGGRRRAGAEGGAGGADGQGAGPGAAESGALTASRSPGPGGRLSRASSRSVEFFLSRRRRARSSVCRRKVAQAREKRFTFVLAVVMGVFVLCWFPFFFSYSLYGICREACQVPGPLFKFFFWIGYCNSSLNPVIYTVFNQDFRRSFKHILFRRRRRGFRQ
# Assay type: functional
observed property: AC50

| molecule | observed property | result |
| --- | --- | --- |
| CC(=O)OCC[N+](C)(C)C [ACETYLCHOLINE] | AC50 | > 10 µM |
| CC#CCn1c(N2CCC[C@@H](N)C2)nc2c1c(=O)n(Cc1nc(C)c3ccccc3n1)c(=O)n2C [LINAGLIPTIN] | AC50 | > 10 µM |
| COc1cc2nccc(Oc3ccc(NC(=O)Nc4cc(C)on4)c(Cl)c3)c2cc1OC [TIVOZANIB] | AC50 | > 30 µM |
| CCCCC[C@H](O)/C=C/[C@H]1[C@H](O)CC(=O)[C@@H]1C/C=C\CCCC(=O)O [DINOPROSTONE] | AC50 | > 30 µM |
| CCCCCCNC(=O)n1cc(F)c(=O)[nH]c1=O [CARMOFUR] | AC50 | > 30 µM |
| CC(C)N(CCCCOCC(=O)NS(C)(=O)=O)c1cnc(-c2ccccc2)c(-c2ccccc2)n1 [SELEXIPAG] | AC50 | > 30 µM |

---

Listed below: AC50 values for each entry.
# measured on: UniProt P08908
# Type: functional, cell-based
observed property: AC50

| compound | result |
| --- | --- |
| C[n+]1ccccc1/C=N/O | > 30 µM |
| Nc1nc(F)nc2c1ncn2[C@@H]1O[C@H](COP(=O)(O)O)[C@@H](O)[C@@H]1O [FLUDARABINE PHOSPHATE] | > 30 µM |
| O=C(O)c1cc(O)c2c3nc4ccccc4oc-3cc(=O)c2n1 | > 30 µM |
| Nc1nc(O)c2ncn(COC(CO)CO)c2n1 | > 30 µM |
| CC1(C)C(/C=C/C=C/C=C/C=C2\N(CCCCS(=O)(=O)O)c3ccc4ccccc4c3C2(C)C)=[N+](CCCCS(=O)(=O)[O-])c2ccc3ccccc3c21 [INDOCYANINE GREEN ACID FORM] | > 30 µM |
| NS(=O)(=O)c1cc2c(cc1C(F)(F)F)NC(Cc1ccccc1)NS2(=O)=O (configuration not stated) [BENDROFLUMETHIAZIDE] | > 10 µM |
| N=C(N)NCCCCCCC(=O)NC(O)C(=O)NCCCCNCCCN (configuration not stated) | > 30 µM |
| [H]/N=C(/N)N[C@H]1[C@H](O)[C@@H](O)[C@H](O[C@@H]2O[C@@H](C)[C@](O)(C=O)[C@H]2O[C@@H]2O[C@@H](CO)[C@H](O)[C@@H](O)[C@@H]2NC)[C@@H](N/C(N)=N\[H])[C@@H]1O | > 10 µM |
| CO[C@@]1(NC(=O)CSCC#N)C(=O)N2C(C(=O)O)=C(CSc3nnnn3C)CS[C@@H]21 | > 30 µM |
| CCCCNc1ccc(C(=O)OCCN(C)C)cc1 | > 10 µM |
| O=C1CN=C(c2ccccc2)c2cc(Cl)ccc2N1 | > 10 µM |
| Nc1ccn([C@@H]2O[C@H](CO)[C@@H](O)C2(F)F)c(=O)n1 | > 10 µM |
| CC(=O)Nc1c(I)c(C(=O)N[C@H]2C(O)O[C@H](CO)[C@@H](O)[C@@H]2O)c(I)c(N(C)C(C)=O)c1I (some centres not stated) [METRIZAMIDE] | > 10 µM |
| CC(C)C[C@H](CN)CC(=O)O | > 30 µM |
| O=C(O)c1ccccc1Nc1cccc(C(F)(F)F)c1 | 15 µM |
| N#Cc1ccccc1-c1cc(-c2ccccn2)cn(-c2ccccc2)c1=O | > 30 µM |
| CCCNC(C)C(=O)Nc1ccccc1C (configuration not stated) | > 30 µM |

---

# measured on: 5-hydroxytryptamine receptor 1A (Homo sapiens, UniProt P08908)
# Sequence (P08908 whole entry): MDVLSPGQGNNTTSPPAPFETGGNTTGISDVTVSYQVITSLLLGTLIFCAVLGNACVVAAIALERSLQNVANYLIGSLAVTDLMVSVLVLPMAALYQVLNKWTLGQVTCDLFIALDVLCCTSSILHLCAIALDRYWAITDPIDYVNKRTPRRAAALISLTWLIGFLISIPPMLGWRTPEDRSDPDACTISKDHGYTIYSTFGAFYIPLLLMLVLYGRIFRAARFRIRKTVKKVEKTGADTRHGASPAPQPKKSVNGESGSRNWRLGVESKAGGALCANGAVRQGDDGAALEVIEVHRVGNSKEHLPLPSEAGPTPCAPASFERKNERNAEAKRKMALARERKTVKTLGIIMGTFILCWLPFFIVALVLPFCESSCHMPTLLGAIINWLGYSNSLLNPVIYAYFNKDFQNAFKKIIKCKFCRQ
# Type: functional, cell-based

| compound | measured on | AC50 |
| --- | --- | --- |
| NS(=O)(=O)c1cc(C(=O)O)cc(N2CCCC2)c1Oc1ccccc1 [PIRETANIDE] | 5-hydroxytryptamine receptor 1A (Homo sapiens, UniProt P08908) | > 30 µM |
| Nc1nc(O)c2ncn(COC(CO)CO)c2n1 | 5-hydroxytryptamine receptor 1A (Homo sapiens, UniProt P08908) | > 30 µM |
| CC(C)(C)NCC(O)c1cc(Cl)c(N)c(Cl)c1 (stereo not drawn) | 5-hydroxytryptamine receptor 1A (Homo sapiens, UniProt P08908) | 3.02 µM |
| CNCC[C@H](Oc1cccc2ccccc12)c1cccs1 | 5-hydroxytryptamine receptor 1A (Homo sapiens, UniProt P08908) | 8.9 µM |
| C#C[C@]1(O)CC[C@H]2[C@@H]3CCc4cc(OC)ccc4[C@H]3CC[C@@]21C | 5-hydroxytryptamine receptor 1A (Homo sapiens, UniProt P08908) | > 10 µM |
| CN1c2ccccc2C(NCCCCCCC(=O)O)c2ccc(Cl)cc2S1(=O)=O (stereo not drawn) | 5-hydroxytryptamine receptor 1A (Homo sapiens, UniProt P08908) | > 30 µM |
| COc1cc2c(Nc3ccc(Br)cc3F)ncnc2cc1OCC1CCN(C)CC1 | 5-hydroxytryptamine receptor 1A (Homo sapiens, UniProt P08908) | > 30 µM |
| CC[C@H]1OC(=O)[C@H](C)[C@@H](O[C@H]2C[C@@](C)(OC)[C@@H](O)[C@H](C)O2)[C@H](C)[C@@H](O[C@@H]2O[C@H](C)C[C@H](N(C)C)[C@H]2O)[C@](C)(OC)C[C@@H](C)C(=O)[C@H](C)[C@@H](O)[C@]1(C)O | 5-hydroxytryptamine receptor 1A (Homo sapiens, UniProt P08908) | > 30 µM |

Values were extracted from ChEMBL document CHEMBL5291721.
